B1: LINE1-full (parent)
chain: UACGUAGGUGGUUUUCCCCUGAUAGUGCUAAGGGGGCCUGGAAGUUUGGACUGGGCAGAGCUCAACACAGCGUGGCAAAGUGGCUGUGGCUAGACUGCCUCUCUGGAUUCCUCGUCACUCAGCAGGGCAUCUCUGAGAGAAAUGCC

Variants of: B1
Assay: self-cleavage, relative activity (ratio to wild type); higher = more cleavage; in vitro, sequencing; the parent is a self-cleaving ribozyme
Measured parameter: self-cleavage

These recorded examples may help you get a feel for the data.
# Residue change, Experimental value
data = [
    ("A67U G106A", 0.15),
    ("U62A G86A", 0.05),
    ("A24U U46A", 0.91),
]

Okay, now this variant:
Please fill in: self-cleavage reported for U23C C118U = 1.81
